Literature survey of pIC50 (system: UniProt Q12884).
- TEST_SYSTEM: UniProt Q12884
- Sequence (Q12884 whole entry): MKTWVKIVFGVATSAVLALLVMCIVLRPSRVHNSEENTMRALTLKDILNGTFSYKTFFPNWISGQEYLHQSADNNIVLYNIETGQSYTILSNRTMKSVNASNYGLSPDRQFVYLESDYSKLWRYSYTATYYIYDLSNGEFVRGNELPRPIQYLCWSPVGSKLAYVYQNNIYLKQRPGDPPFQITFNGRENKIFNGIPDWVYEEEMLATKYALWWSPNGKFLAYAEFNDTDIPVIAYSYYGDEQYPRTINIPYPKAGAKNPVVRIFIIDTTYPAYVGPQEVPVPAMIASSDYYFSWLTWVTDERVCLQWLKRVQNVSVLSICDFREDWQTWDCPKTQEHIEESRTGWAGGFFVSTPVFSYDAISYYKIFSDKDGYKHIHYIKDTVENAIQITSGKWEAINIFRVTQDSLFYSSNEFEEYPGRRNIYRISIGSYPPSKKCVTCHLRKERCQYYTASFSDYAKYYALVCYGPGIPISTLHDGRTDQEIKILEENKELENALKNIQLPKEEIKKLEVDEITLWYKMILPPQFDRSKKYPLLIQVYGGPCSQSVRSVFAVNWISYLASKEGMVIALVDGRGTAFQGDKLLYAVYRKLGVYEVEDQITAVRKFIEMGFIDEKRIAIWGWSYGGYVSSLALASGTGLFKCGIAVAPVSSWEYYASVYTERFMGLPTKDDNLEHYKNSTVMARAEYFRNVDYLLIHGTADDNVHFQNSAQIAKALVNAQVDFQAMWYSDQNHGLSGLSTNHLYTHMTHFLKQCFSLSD
pIC50: −log10 of the molar value.
PROPERTY_NAME: pIC50

[
  {
    "COMPOUND": "N[C@@H](CC(=O)N1CCn2c(nnc2C(F)(F)F)C1Cc1ccccc1)Cc1cc(F)c(F)cc1F (single isomer, unassigned)",
    "VALUE_MEASURED": "< 5.00"
  },
  {
    "COMPOUND": "Cc1noc(C)c1S(=O)(=O)N(C)[C@H]1CC[C@H]([C@H](N)Cc2cc(F)ccc2F)CC1",
    "VALUE_MEASURED": "< 4.46"
  },
  {
    "COMPOUND": "N[C@H]1C[C@@H](N2Cc3nc(C(F)(F)F)[nH]c3C2)CO[C@@H]1c1cc(F)ccc1F",
    "VALUE_MEASURED": "< 4.00"
  },
  {
    "COMPOUND": "COc1ccc(-c2nc(C(=O)NCC(=O)N3CC(F)(F)C[C@H]3C#N)cs2)cc1",
    "VALUE_MEASURED": 6.67
  },
  {
    "COMPOUND": "NC(=O)[C@H]1CCCN([C@H]2CC[C@H]([C@H](N)Cc3cc(F)ccc3F)CC2)C1",
    "VALUE_MEASURED": "< 4.46"
  },
  {
    "COMPOUND": "CC(C)(CC(=O)N[C@H]1C[C@@H]1c1cc(F)cc(F)c1)NCC(=O)N1CCC[C@H]1C#N",
    "VALUE_MEASURED": "< 4.70"
  },
  {
    "COMPOUND": "Cc1ccc(S(=O)(=O)Cc2nc(C(=O)NCC(=O)N3CC(F)(F)C[C@H]3C#N)cs2)cc1",
    "VALUE_MEASURED": 7.70
  },
  {
    "COMPOUND": "CC(C)(CC(=O)NCCc1ccccc1)NCC(=O)N1CCC[C@H]1C#N",
    "VALUE_MEASURED": "< 4.70"
  },
  {
    "COMPOUND": "CN(C)C(=O)[C@@H](c1ccc(-c2ccc3nncn3c2)cc1)[C@H](N)C(=O)N1CC[C@H](F)C1.O=C(O)C(F)(F)F",
    "VALUE_MEASURED": "< 4.40"
  },
  {
    "COMPOUND": "CN(C)C(=O)[C@@H](c1ccc(-c2ccc3ncnn3c2)cc1)[C@H](N)C(=O)N1CCCC1.O=C(O)C(F)(F)F",
    "VALUE_MEASURED": "< 4.40"
  },
  {
    "COMPOUND": "Cc1ccc(Cc2nc(C(=O)NCC(=O)N3CC(F)(F)C[C@H]3C#N)cs2)cc1",
    "VALUE_MEASURED": 7.43
  },
  {
    "COMPOUND": "CC(C)(CC(=O)N[C@H]1C[C@@H]1c1cccc(F)c1)NCC(=O)N1C[C@@H](F)C[C@H]1C#N",
    "VALUE_MEASURED": "< 4.70"
  },
  {
    "COMPOUND": "CC(C)(CC(=O)N[C@H]1C[C@@H]1c1cccc(F)c1)NCC(=O)N1CCC[C@H]1C#N",
    "VALUE_MEASURED": "< 4.70"
  },
  {
    "COMPOUND": "Cc1nc(CN2C(=O)c3c(nc(N4CCC[C@@H](N)C4)n3Cc3cccc(F)c3)N3CCN=C23)nc2ccccc12",
    "VALUE_MEASURED": 5.34
  },
  {
    "COMPOUND": "Cl.N[C@@H](CC(=O)N1CCn2c(nnc2C(F)(F)F)[C@H]1Cc1ccc(F)cc1)Cc1cc(F)c(F)cc1F (mixture of isomers)",
    "VALUE_MEASURED": "< 5.00"
  },
  {
    "COMPOUND": "N#C[C@@H]1CC(F)(F)CN1C(=O)CNC(=O)c1csc(-c2ccc(-c3ccccc3)cc2)n1",
    "VALUE_MEASURED": 6.38
  },
  {
    "COMPOUND": "CC(C)(CC(=O)N[C@H]1C[C@@H]1c1cccc(Cl)c1)NCC(=O)N1CCC[C@H]1C#N (stereo in doubt; 22)",
    "VALUE_MEASURED": "< 4.70"
  }
]

* * *

Collected literature values of IC50 measured for UniProt:Q12884.
- TEST_SYSTEM: UniProt:Q12884
- Sequence (Q12884 whole entry): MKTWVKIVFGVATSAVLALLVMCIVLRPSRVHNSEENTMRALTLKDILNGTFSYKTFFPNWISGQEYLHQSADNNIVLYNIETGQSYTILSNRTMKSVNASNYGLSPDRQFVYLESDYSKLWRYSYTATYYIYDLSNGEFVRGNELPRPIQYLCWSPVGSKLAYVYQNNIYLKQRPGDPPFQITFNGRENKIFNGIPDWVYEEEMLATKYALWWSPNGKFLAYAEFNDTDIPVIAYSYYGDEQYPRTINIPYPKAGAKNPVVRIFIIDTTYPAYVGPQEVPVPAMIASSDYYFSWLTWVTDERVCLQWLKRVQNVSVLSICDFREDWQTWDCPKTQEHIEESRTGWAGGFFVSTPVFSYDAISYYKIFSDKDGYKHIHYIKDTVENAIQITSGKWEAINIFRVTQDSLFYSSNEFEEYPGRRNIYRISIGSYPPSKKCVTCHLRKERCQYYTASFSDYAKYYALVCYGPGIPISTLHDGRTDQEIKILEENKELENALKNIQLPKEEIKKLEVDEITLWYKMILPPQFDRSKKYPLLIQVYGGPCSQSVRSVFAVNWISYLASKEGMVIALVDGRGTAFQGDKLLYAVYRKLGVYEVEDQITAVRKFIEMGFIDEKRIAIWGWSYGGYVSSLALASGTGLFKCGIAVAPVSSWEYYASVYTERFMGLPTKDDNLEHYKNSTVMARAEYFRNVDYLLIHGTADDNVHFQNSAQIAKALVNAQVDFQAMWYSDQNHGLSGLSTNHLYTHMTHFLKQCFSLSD
PROPERTY_NAME: IC50

[
  {
    "COMPOUND": "N[C@@H](CC(=O)N1CCn2c(nnc2C(F)(F)F)C1CC(F)(F)F)Cc1cc(F)c(F)cc1F (stereo in doubt; 39b)",
    "PROPERTY_NAME": "IC50",
    "VALUE_MEASURED": "> 10 µM"
  },
  {
    "COMPOUND": "CN(C)C(=O)[C@@H](c1ccc(-c2ccn3ncnc3c2)cc1)[C@H](N)C(=O)N1CCC(F)(F)C1.O=C(O)C(F)(F)F",
    "PROPERTY_NAME": "IC50",
    "VALUE_MEASURED": "> 40 µM"
  },
  {
    "COMPOUND": "Cc1oncc1S(=O)(=O)N(C)[C@H]1CC[C@H]([C@H](N)Cc2cc(F)ccc2F)CC1",
    "PROPERTY_NAME": "IC50",
    "VALUE_MEASURED": "> 35 µM"
  },
  {
    "COMPOUND": "NC(=O)C1CCCN([C@H]2CC[C@H]([C@H](N)Cc3cc(F)ccc3F)CC2)C1 (single isomer, unassigned)",
    "PROPERTY_NAME": "IC50",
    "VALUE_MEASURED": "> 35 µM"
  },
  {
    "COMPOUND": "N#C[C@@H]1CC(F)(F)CN1C(=O)CNC(=O)c1csc(Cc2ccc(-n3cncn3)cc2)n1",
    "PROPERTY_NAME": "IC50",
    "VALUE_MEASURED": "0.028 µM"
  },
  {
    "COMPOUND": "CC(C)(CC(=O)N[C@H]1C[C@@H]1c1ccc(F)cc1F)NCC(=O)N1CCC[C@H]1C#N",
    "PROPERTY_NAME": "IC50",
    "VALUE_MEASURED": "> 20 µM"
  },
  {
    "COMPOUND": "CC(C)(CC(=O)NC(C)(C)Cc1ccccc1)NCC(=O)N1CCC[C@H]1C#N",
    "PROPERTY_NAME": "IC50",
    "VALUE_MEASURED": "> 20 µM"
  },
  {
    "COMPOUND": "CC(C)(CC(=O)NCCc1cccc(C(F)(F)F)c1)NCC(=O)N1CCC[C@H]1C#N",
    "PROPERTY_NAME": "IC50",
    "VALUE_MEASURED": "> 20 µM"
  },
  {
    "COMPOUND": "COc1ccc(NC(=O)CC(C)(C)NCC(=O)N2CCC[C@H]2C#N)cc1",
    "PROPERTY_NAME": "IC50",
    "VALUE_MEASURED": "> 20 µM"
  },
  {
    "COMPOUND": "COC(=O)C1CCCC(N2CCC([C@H](N)Cc3cc(F)ccc3F)CC2)C1 (some centres not stated)",
    "PROPERTY_NAME": "IC50",
    "VALUE_MEASURED": "> 35 µM"
  },
  {
    "COMPOUND": "CC(C)(CC(=O)N[C@H]1C[C@@H]1c1cccc(C(F)(F)F)c1)NCC(=O)N1CCC[C@H]1C#N",
    "PROPERTY_NAME": "IC50",
    "VALUE_MEASURED": "> 20 µM"
  },
  {
    "COMPOUND": "CN(C)C(=O)CC1c2nnc(C(F)(F)F)n2CCN1C(=O)C[C@H](N)Cc1cc(F)c(F)cc1F (stereo in doubt; 41a)",
    "PROPERTY_NAME": "IC50",
    "VALUE_MEASURED": "> 10 µM"
  },
  {
    "COMPOUND": "CC(=O)N1CCC([C@H](N)Cc2cc(F)ccc2F)CC1",
    "PROPERTY_NAME": "IC50",
    "VALUE_MEASURED": "> 35 µM"
  },
  {
    "COMPOUND": "CN(C)C(=O)[C@@H](c1ccc(-c2ccc3ncnn3c2)cc1)[C@H](N)C(=O)N1CC(F)C1.O=C(O)C(F)(F)F",
    "PROPERTY_NAME": "IC50",
    "VALUE_MEASURED": "> 40 µM"
  },
  {
    "COMPOUND": "N#C[C@@H]1CC(F)(F)CN1C(=O)CNC(=O)c1csc(-c2ccc(C(F)(F)F)cc2)n1",
    "PROPERTY_NAME": "IC50",
    "VALUE_MEASURED": "0.077 µM"
  },
  {
    "COMPOUND": "CC(=O)N(C)[C@H]1CC[C@H]([C@H](N)Cc2cc(F)ccc2F)CC1",
    "PROPERTY_NAME": "IC50",
    "VALUE_MEASURED": "> 35 µM"
  },
  {
    "COMPOUND": "N#C[C@@H]1CC(F)(F)CN1C(=O)CNC(=O)c1csc(CS(=O)(=O)c2ccc(Cl)c(Cl)c2)n1",
    "PROPERTY_NAME": "IC50",
    "VALUE_MEASURED": "0.019 µM"
  }
]
